- Test system: neonatal rat ventricular cardiomyocytes (NVCM)
- protocol.summary: Inherent toxicity (LDH release) in NVCM
- Type: cell-based
- experimental.setup: NVCM, compound alone, n=4
measured.quantity: LTC = lowest toxic concentration

>>> recorded_measurement("CCCc1cc(=O)oc2c(C(=O)N3CCCc4ccccc43)c(OC)ccc12")
"> 10 µM"
>>> recorded_measurement("CCCc1cc(=O)oc2c(C(=O)N3CCCc4ccccc43)c(OC)cc(OC)c12")
"> 10 µM"
>>> recorded_measurement("CCCc1cc(=O)oc2c(C(=O)N3CCCc4ccccc43)c(OCCCN3CCCCC3)ccc12")
"30 µM"

---

- protocol.summary: Plasma pharmacokinetics in rabbits (LC-MS/MS)
- Format: in vivo, rabbit
- experimental.setup: iv; rabbit plasma, 10 mg/kg, 20 min i.v. infusion
measured.quantity: Tmax

>>> recorded_measurement("CCCc1cc(=O)oc2c(C(=O)N3CCCc4ccccc43)c(OCCN3CCN(C)CC3)ccc12")
"10 min"
